Target: UniProt:P32245
Sequence (P32245 whole entry): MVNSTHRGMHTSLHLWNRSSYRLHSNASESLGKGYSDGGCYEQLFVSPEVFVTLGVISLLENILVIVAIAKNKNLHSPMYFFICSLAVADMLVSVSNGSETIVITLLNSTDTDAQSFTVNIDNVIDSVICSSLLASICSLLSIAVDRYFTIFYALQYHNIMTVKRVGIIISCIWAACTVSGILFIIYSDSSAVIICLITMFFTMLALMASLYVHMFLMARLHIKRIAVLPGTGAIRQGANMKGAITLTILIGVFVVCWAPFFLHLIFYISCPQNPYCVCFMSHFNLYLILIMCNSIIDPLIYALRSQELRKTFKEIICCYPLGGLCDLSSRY
Listed molecules paired with reported Ki
REPORTED ENDPOINT: Ki (nM)

>>> observed_value("COc1ccc([C@@H]2CN(c3ccc(=O)[nH]n3)C[C@H]2C(=O)N2CCCC(c3ccc(Cl)cc3)N(S(C)(=O)=O)CC2)c(F)c1 (single isomer, unassigned) [Example 114]")
20.8
>>> observed_value("COC(=O)N1CCN(C(=O)[C@@H]2CN(c3cccnn3)C[C@H]2c2ccc(F)cc2F)CCC1c1ccccc1 (mixture of isomers) [Example 49]")
208
>>> observed_value("COC(=O)N1CCN(C(=O)[C@@H]2CN(c3ccc(=O)[nH]n3)C[C@H]2c2ccc(OC)cc2F)CCC[C@H]1c1ccc(Cl)cc1 [Example 69]")
16.4

All figures here come from patent US8592403B2.
